Each entry below lists one item and its recorded cell viability value.
- Test system: U2OS
- EXPERIMENT SUMMARY: cell viability relative to DMSO; higher = less toxic
- EXPERIMENTAL CONTEXT: 72 h; 1000 nM
# value in %; strip the unit string

Take a look at these entries with their results.
CC(C)(C)c1ccc(S(=O)(=O)/C=C/C#N)cc1 [BAY-11-7085] = 89.1
CNc1nc(-c2ccc3c(N)n[nH]c3c2)cc(N2C[C@@H](C(=O)NC3CCCCC3)CC[C@H]2C)n1 = 91
Cc1cc(C(=O)NOCCO)c(Nc2ccc(I)cc2F)n(C)c1=O [AZD8330] = 37.3
CC(Cc1cccc(C(F)(F)F)c1)NCCOC(=O)c1ccccc1 (stereo not drawn) [benfluorex] = 96.8
CC1(C)CNc2cc(NC(=O)c3cccnc3NCc3ccncc3)ccc21 [motesanib] = 98.9

Q: Find the measured cell viability: item CC(C)N(CCC(=O)c1ccc2ccccc2c1)Cc1ccccc1 , target or system U2OS.
A: 96.7

Q: Given the entry C=CC[N+]1([C@H]2C[C@H]3[C@@H]4CC[C@H]5C[C@H](O)[C@@H](N6CCOCC6)C[C@]5(C)[C@H]4CC[C@]3(C)[C@H]2OC(C)=O)CCCC1 [ROCURONIUM BROMIDE] , what cell viability was observed with U2OS?
A: 103

Q: Kindly state the measured cell viability obtained for CCc1c(-c2ccccc2)c(-c2ccccc2)nn1-c1ccccc1-c1cccc(OCC(=O)O)c1 with U2OS.
A: 105
